- Protocol Notes: Pharmacokinetic studies in Sprague Dawley rats (oral gavage and IV)
- Type: in vivo
- Study Conditions: rat, IV (1 mg/kg), male SD rats, plasma, read-out: AUC0-24 h
- Procedure: The pharmacokinetics of test compounds was evaluated in male SD rats when administered via oral gavage and IV injection. For oral dosing, compound was formulated in 0.5% methylcellulose and administered at doses of 5 mg/kg (3 rats per dose level) and volume of 10 mL/kg. […] The samples were analyzed by LC/MS/MS and the concentration of test compound at each timepoint was determined by linear regression. Pharmacokinetic parameters were calculated from the plasma concentrations using Pheonix WinNonlin.
Readout Kind: AUC(0-t) (ng·h/mL)

Entry under test: Cc1noc([C@@]2(C)CC[C@]3(C)CC[C@]4(C)[C@H](C(=O)C=C5[C@@]6(C)C=C(C#N)C(=O)C(C)(C)[C@@H]6CC[C@]54C)[C@@H]3C2)n1 . Its AUC(0-t) was 329

A: CC1(C)C(=O)C(C#N)=C[C@]2(C)C3=CC(=O)[C@@H]4[C@@H]5C[C@@](C)(c6nnc(C(=O)NC7CC7)o6)CC[C@]5(C)CC[C@@]4(C)[C@]3(C)CC[C@@H]12
B: CC(=NC#N)NC[C@]12CCC(C)(C)C[C@H]1[C@H]1C(=O)C=C3[C@@]4(C)C=C(C#N)C(=O)C(C)(C)[C@@H]4CC[C@@]3(C)[C@]1(C)CC2
Looking at recorded values for AUC(0-t), does A or B come in lower? # reply format: chosen label
B
(B: 292 ng·h/mL, A: 496 ng·h/mL)
